Tested on: CAMKK2
Conditions: concentration: 1 μM, replicates: in singlicate; n = 1;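 also: KINOMEscan kinase panel screen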
property-label: %Inh (%)
The response must be a number in % with no trailing unit.

Please review the following examples before continuing.
compound | measured-number
Cc1nnc(-c2ccc3occ(-c4ccc(C(C)O)cc4)c3c2)o1 (stereo not shown) | 14
O=C1Cc2cc(Nc3nc(NCc4cccc(S(=O)(=O)C(F)(F)F)c4)ncc3C(F)(F)F)ccc2N1 | 3
[2H]C([2H])(c1cccc(C(F)(F)F)c1C)n1ccn2c(=O)nc(N3CCOCC3)cc12 [GSK2336394] | 0

Q. Item CC(C)(C)n1cnc2c(N)ncnc21 [SKF-97359] with CAMKK2 - %Inh?
A. 0

###

A collection of compounds and their measured %Inh
Test system: FRK
Details: concentration: 1 μM, replicates: in singlicate; n = 1
Field format: number, assumed %, no unit text.

Reference set (5 entries):
compound | unit-info | %Inh
O=C1NC(=O)C(N2CCc3ccccc32)=C1c1cccc(Cl)c1 [SB-408010] | % | 0
COc1ccc(Nc2nccc(N3CCC(NC(=O)Nc4cc(C)ccc4C)C3)n2)cc1 (stereo not drawn) [GSK1379741] | % | 0
Cl.Oc1cccc(Nc2ccnc3cc(-c4ccncc4)ccc23)c1 [GW494601] | % | 97.6
O=c1cc(N2CCOCC2)nc2n(Cc3cccc(Cl)c3Cl)c(C3CC3)nn12 [GSK2358994] | % | 0
Cl.Nc1ncnc2occ(-c3ccc(NC(=O)Nc4cc(C(F)(F)F)ccc4F)cc3)c12 [SB-707548] | % | 95.7

Q. Given the entry NS(=O)(=O)c1cccc(-c2ccc3ncc(N4CCOCC4)nc3c2)c1 [GSK1535721] , report its measured %Inh.
A. 11

Q. Name the reported %Inh value associated with the compound CCCCCc1nc2c(N)ncnc2n1CCCCC [SKF-97255]
A. 0

Q. I am curious: what %Inh value has been reported for Cc1ccc(NC(=O)c2ccnc(N3CCN(C)CC3)c2)cc1-c1ccc(C(=O)NCC2CC2)cc1 [GW775604] ?
A. 0

Q. Field request: %Inh | item: Fc1ccc(-c2ncn(CCCN3CCOCC3)c2-c2cccnc2)cc1 [SB-211743]
A. 0

Q. If you can, please state the reported %Inh value of COc1cc2c(cc1OC[C@@H](O)CO)ncc1c3ccc(C#N)cc3[nH]c21 .
A. 0

Q. Value lookup for %Inh; key = Cc1c(Cn2c(C)nn3c(=O)cc(N4CCOC(C)C4)nc23)cccc1C(F)(F)F (stereo not drawn) [GSK2344444]
A. 0

###

Tested on: TNNI3K
Conditions: concentration: 1 μM, replicates: in singlicate; n = 1
property-label: %Inh
# answer = value followed by unit

Recorded %Inh, per entry:
compound | %Inh
NS(=O)(=O)c1cccc(-c2ccc3nccc(-c4cccc(S(N)(=O)=O)c4)c3c2)c1 [GW867253] | 0%
CCn1cnc2c(N)ncnc21 [GW345098] | 4%
N#Cc1ccc(-c2cc(-c3c[nH]nc3-c3ccccn3)ccn2)cc1 [GW693028] | 31%
O=c1cc(N2CCOCC2)nc2n(Cc3cccc(C(F)(F)F)c3)ccn12 [GSK2297543] | 6%

Q. Item under review: Cc1cccc(Cn2ccn3c(=O)cc(N4CCOCC4)nc23)c1 [GSK2297542] . Reported %Inh?
A. 2%

Q. Look up %Inh for this compound: Fc1ccc(-c2ncn(CCCN3CCOCC3)c2-c2ccccn2)cc1 [SB-211742]
A. 0%

Q. Quick one: %Inh of COc1ccc(Nc2ncc(C#N)c(Nc3ccccc3C(N)=O)n2)cc1N1CCN(C)CC1.Cl [GSK1558669] ?
A. 82%

Q. Quick one: %Inh for Cn1ccc2ncnc(Oc3ccc(NC(=O)Nc4ccncc4)c(Cl)c3)c21 ?
A. 0%
